- Study System: NK2-receptor (Cavia porcellus, UniProt Q64077)
- Construct: from tissue; host or cells: whole animal (Pirbright-White guinea pigs), in vivo
- Sequence (Q64077 whole entry): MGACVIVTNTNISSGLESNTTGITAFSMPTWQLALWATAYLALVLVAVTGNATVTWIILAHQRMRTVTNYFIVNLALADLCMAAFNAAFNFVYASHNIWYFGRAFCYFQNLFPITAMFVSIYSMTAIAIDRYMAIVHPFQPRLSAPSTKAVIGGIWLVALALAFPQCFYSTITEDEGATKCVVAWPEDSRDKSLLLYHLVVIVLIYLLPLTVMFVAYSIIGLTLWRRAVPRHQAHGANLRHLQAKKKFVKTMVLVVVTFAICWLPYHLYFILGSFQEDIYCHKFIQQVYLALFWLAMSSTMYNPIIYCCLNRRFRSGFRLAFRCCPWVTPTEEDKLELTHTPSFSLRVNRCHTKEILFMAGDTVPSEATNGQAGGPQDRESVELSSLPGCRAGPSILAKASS
- Test Description: NK2-receptor-antagonistic effectiveness in vivo, NKA-induced late hypotension, bronchoconstriction and colonic pressure in anaesthetised guinea pigs
- Assay Context: guinea pig, NKA 200 pmol/animal i.v., intravenous administration
Property: ED50 iv after 1 min (cumulative), NK2 (late hypotension) (µmol/kg)

# Chemical Smiles, Measurement Unit, Number
data = [
    ("CN(C)C(=O)C1(N2CCCCC2)CCN(CC[C@H](CN(C)C(=O)c2ccc(F)c(F)c2)c2ccc(Cl)c(Cl)c2)CC1", "µmol/kg", 0.247),
]

1: CN(C)C(=O)C1(N2CCCCC2)CCN(CC[C@H](CN(C)C(=O)c2ccc(F)c(Cl)c2)c2ccc(Cl)c(Cl)c2)CC1
2: CN(C)C(=O)C1(N2CCCCC2)CCN(CC[C@H](CN(C)C(=O)c2ccc(F)c(F)c2F)c2ccc(Cl)c(Cl)c2)CC1
Req: Please tell me which of the two, 1 or 2 , has the higher reported ED50 iv after 1 min (cumulative), NK2 (late hypotension) value. Record your answer as the label of the chosen record.
Resp: 1
(1: 1.113 µmol/kg, 2: 0.34 µmol/kg)
